Collected pIC50 values appear next to each entry.
Target: p110α/p85α (Homo sapiens (Human), UniProt P42336)
Sequence (P42336 whole entry): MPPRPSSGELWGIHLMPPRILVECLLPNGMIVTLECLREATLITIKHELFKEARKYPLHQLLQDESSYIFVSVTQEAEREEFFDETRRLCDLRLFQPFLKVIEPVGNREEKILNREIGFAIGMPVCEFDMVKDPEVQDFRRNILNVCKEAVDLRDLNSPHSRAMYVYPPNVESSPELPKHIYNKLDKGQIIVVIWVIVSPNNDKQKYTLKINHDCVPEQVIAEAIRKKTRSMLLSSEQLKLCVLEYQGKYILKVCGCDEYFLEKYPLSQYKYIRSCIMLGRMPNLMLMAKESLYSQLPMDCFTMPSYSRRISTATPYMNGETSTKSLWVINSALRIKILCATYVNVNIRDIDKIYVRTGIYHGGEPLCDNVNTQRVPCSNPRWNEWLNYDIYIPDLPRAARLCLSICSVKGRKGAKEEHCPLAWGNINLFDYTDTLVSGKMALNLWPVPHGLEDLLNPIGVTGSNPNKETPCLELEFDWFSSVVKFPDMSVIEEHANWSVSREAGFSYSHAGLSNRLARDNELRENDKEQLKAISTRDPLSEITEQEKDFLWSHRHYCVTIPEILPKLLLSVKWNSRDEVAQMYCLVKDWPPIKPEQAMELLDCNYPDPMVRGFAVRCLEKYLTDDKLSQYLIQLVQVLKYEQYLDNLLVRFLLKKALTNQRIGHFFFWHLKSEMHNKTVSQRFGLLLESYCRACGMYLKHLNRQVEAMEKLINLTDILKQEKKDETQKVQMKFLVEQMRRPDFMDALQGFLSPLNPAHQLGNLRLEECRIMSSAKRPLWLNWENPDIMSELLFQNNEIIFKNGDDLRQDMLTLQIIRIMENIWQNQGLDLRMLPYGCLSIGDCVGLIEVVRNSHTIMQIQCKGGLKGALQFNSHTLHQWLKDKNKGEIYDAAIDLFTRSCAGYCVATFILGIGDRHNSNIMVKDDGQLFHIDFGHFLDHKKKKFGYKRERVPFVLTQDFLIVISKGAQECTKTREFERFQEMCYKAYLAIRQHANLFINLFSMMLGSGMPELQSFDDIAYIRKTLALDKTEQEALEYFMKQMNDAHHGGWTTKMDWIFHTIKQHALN
Sequence (P27986 whole entry partner): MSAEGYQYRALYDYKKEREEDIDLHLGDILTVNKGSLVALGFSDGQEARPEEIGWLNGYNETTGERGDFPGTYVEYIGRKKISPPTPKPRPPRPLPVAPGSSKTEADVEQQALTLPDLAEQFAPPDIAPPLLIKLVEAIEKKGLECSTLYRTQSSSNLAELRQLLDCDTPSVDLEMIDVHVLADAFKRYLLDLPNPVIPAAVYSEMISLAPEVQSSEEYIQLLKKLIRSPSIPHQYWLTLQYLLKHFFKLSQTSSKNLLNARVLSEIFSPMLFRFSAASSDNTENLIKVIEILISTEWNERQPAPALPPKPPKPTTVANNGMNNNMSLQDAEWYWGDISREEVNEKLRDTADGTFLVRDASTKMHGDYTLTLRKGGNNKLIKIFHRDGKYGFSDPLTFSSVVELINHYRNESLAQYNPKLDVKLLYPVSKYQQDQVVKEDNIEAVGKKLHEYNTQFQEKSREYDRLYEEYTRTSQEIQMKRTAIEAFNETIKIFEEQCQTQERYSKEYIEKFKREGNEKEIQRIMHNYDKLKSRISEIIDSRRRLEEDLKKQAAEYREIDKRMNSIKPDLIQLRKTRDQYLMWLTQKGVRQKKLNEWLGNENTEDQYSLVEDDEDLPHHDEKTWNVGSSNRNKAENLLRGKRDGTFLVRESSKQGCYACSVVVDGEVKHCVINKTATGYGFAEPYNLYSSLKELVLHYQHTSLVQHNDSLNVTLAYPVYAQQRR
Experiment: PI3K α inhibition assay (TLC lipid kinase or HTRF)
pIC50: −log10 of the molar value.

Example entries and their recorded answers appear below.
{"COMPOUND": "Cc1cccc2cc(Cn3nc(-c4cccc(O)c4)c4c(N)ncnc43)c(N3CCOCC3)nc12 [Compound 66]", "TGT": "p110α/p85α (Homo sapiens (Human), UniProt P42336)", "pIC50": "< 6.00"}
{"COMPOUND": "Nc1ncnc2ccc(-c3nn(Cc4cc5ccccc5nc4-c4ccccc4F)c4ncnc(N)c34)cc12 [Compound 138]", "TGT": "p110α/p85α (Homo sapiens (Human), UniProt P42336)", "pIC50": "< 6.00"}
{"COMPOUND": "Cc1ccncc1-c1nc2ccccc2cc1Cn1nc(-c2cc(O)cc(F)c2)c2c(N)ncnc21 [Compound 56]", "TGT": "p110α/p85α (Homo sapiens (Human), UniProt P42336)", "pIC50": "< 6.00"}
{"COMPOUND": "CN1CCN(c2nc3ccccc3cc2Cn2nc(-c3cc(O)cc(F)c3)c3c(N)ncnc32)CC1 [Compound 50]", "TGT": "p110α/p85α (Homo sapiens (Human), UniProt P42336)", "pIC50": "< 6.00"}
{"COMPOUND": "CC1CCCN1c1nc2ccccc2cc1Cn1nc(-c2ccc3nc(N)sc3c2)c2c(N)ncnc21 (stereo not shown) [Compound 187]", "TGT": "p110α/p85α (Homo sapiens (Human), UniProt P42336)", "pIC50": "> 7.00"}

Ask: # input compound: CC(=O)Nc1nc2ccc(-c3nn(Cc4cc5ccccc5nc4-c4ccccc4)c4ncnc(N)c34)cc2s1 [Compound 92] ; wanted: its pIC50
Result: < 6.00

Ask: Can you check Nc1ncnc2c1c(-c1cc(O)cc(F)c1)nn2Cc1cc2ccccc2nc1N1CCOCC1 [Compound 63] next?
Result: < 6.00

Ask: Please answer likewise for CC(=O)Nc1nc2ccc(-c3nn(Cc4cc5ccccc5nc4N4CCCC4)c4ncnc(N)c34)cc2s1 [Compound 24]
Result: 6.00 to 7.00

Ask: Same question, CC(=O)Nc1nc2ccc(-c3nn(Cc4cc5ccccc5nc4N(C)C)c4ncnc(N)c34)cc2s1 [Compound 130] this time
Result: > 7.00

// data source = patent US9790228B2
